Molecular target: T1, hMDL-1-hIG (human, UniProt Q9NY25 28-188)
T1 construct: Fusion of human MDL-1 with human Ig used in the BIAcore assay; MDL-1 is a type II membrane protein, so the Ig part may stand N-terminal; also called MDL-1-hIg ligand; not shown: human Ig part (hIG)
T1 sequence: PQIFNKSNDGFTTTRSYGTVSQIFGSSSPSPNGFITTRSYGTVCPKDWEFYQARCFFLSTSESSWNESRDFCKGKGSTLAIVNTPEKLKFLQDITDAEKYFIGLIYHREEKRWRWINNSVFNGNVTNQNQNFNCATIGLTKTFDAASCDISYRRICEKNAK
Experiment: BIAcore SPR; hMDL-1-hIG as capture antigen on the chip, mAb as analyte
Recorded measurements of koff, one per entry
Expressed in s⁻¹, but write only the number.

Some binders with recorded koff:
binder	units.of.measure	koff
DX244 (antibody, V domains shown, Parental rodent anti-human MDL-1 monoclonal antibody (not the humanized form); VL of the kappa subclass; also called anti-MDL-1 antibody clone DX244; ATCC PTA-8375) VH: QIQLVQSGPELKKPGETVKISCKASGYTFTIYAMNWVKQAPGKGLEWMGWINTDTGEPTYADDFKGRFAFSLETSASTAYLQINNLKNEDMATYFCARSSEVFYDYRFDYWGQGTALTVSS VL: DIQMTQSPSSLSASLGERVSLTCRASQDIGSSLNWLQQEPDGTIKRLIYATSNLDSGVPKRFSGSRSGSDYSLTISSLESEDFVHYYCLQYASSPFTFGSGTKLEIKR	s⁻¹	6.8e-05
DX241 (antibody, V domains shown, Rodent anti-human MDL-1 monoclonal antibody from a hybridoma; VL of the kappa subclass; also called anti-MDL-1 antibody clone DX241; ATCC PTA-8374) VH: DVKLVESGGGLVKLGGSLKLSCAASGFTFSSYYMSWVRQTPDKRLELVAAINSNGGTTYYPDTVKGRFTISRDNAKNTLYLQMSSLKPEDTALFYCVRDGEFGHYFDYWGQGTTLTVSS VL: SIVMTQTPKFLLVSAGDRVTITCKASQSVNNDVAWYQQKPGQSPKLLIYYASNRYTGVPDRFTGSGYGTDFTFTISTVQAEDLAVYFCQQDYNSPLTFGAGTKLELKR	s⁻¹	7.3e-05

Next up:
Data request: Supply measured koff of DX230 (antibody, V domains shown, Rodent anti-human MDL-1 monoclonal antibody from a hybridoma; VL of the kappa subclass; also called anti-MDL-1 antibody clone DX230; ATCC PTA-8373) VH: EVQLVESGGDLVKPGGSLKLSCAASGFAFSNYDMSWVRQTPEKRLEWVAYISGGGGTTYYSDTVKGRFTISRDNAKNTLYLQMSSLKSEDTAMYYCVRHAVYYGKPYWGQGTTLTVSS VL: DIVLTQSPPSLAVSLGQRATVSCRASESVEHYGTGLMQWYQQKPGQPPRLLIYAASNVESGVPARFSGSGSGTDFSLNIHPVEEDDIAMYFCQQSRKVPWTFGGGTKLEIKR in your reply.
Data returned: 0.0016

Values were extracted from patent US8153134.
